biological target: ACL (Homo sapiens (Human), UniProt P53396); assay: ACLY-MDH Coupled Assay; conditions: read-out: ACL-MDH Coupled Assay (IC50); 8 nM ACL, 60 μM CoA Na2, 85 μM Citrate, 250 μM ATP, 250 μM NADH
Sequence (P53396 whole entry, species assumed): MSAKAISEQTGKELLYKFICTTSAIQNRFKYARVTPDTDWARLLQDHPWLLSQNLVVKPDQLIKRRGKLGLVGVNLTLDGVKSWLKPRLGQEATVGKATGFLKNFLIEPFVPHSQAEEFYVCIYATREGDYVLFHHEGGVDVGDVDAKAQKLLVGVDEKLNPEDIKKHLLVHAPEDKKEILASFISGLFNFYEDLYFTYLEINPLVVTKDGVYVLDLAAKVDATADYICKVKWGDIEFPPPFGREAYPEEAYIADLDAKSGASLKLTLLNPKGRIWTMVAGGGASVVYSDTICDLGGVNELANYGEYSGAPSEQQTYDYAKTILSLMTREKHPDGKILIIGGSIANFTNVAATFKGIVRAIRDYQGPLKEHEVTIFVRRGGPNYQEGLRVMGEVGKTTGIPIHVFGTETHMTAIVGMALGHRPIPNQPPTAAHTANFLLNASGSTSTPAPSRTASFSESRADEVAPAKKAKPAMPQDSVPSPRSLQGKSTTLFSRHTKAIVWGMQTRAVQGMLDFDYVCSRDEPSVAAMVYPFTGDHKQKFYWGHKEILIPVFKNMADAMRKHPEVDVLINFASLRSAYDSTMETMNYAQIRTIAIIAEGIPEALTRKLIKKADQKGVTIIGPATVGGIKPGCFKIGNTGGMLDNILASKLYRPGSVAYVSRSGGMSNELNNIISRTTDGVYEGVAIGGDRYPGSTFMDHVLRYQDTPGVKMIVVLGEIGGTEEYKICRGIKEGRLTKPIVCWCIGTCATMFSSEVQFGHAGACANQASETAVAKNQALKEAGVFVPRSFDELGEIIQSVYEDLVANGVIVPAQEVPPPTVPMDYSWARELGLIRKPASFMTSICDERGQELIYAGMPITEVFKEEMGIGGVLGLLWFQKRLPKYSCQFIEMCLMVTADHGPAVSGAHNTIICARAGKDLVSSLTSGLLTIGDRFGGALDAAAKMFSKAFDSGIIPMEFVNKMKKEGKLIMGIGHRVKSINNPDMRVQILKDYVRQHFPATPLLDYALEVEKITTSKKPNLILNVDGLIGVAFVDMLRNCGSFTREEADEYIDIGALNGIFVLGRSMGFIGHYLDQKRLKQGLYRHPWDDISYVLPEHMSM
Overview of recorded IC50 for various compounds
measurement_kind: IC50

[[record]]
item_smiles = "COc1ccc(-c2ccccc2)cc1NS(=O)(=O)c1cc(C(=O)N2CCC2)cc(Cl)c1O"
measurement_kind = "IC50"
result = "< 50 nM"

[[record]]
item_smiles = "O=S(=O)(Nc1cc(-c2ccccc2)c(F)cc1F)c1cc(C(F)(F)F)cc(Cl)c1O"
measurement_kind = "IC50"
result = "< 50 nM"

[[record]]
item_smiles = "O=c1[nH]cc(Cl)cc1S(=O)(=O)Nc1cc(-c2ccccc2)c(F)cc1F"
measurement_kind = "IC50"
result = "50 to 500 nM"

[[record]]
item_smiles = "CCOC(=O)c1cc(Cl)c(O)c(S(=O)(=O)Nc2cc(-c3ccccc3)c(F)cc2F)c1"
measurement_kind = "IC50"
result = "< 50 nM"

[[record]]
item_smiles = "COc1ccc(-c2cc3ccccc3s2)cc1NS(=O)(=O)c1cc(C(=O)N2CCC2)cc(Cl)c1O"
measurement_kind = "IC50"
result = "< 50 nM"

[[record]]
item_smiles = "COC(=O)c1cc(Cl)c(O)c(S(=O)(=O)Nc2cc(-c3ccccc3)cc(F)c2F)c1"
measurement_kind = "IC50"
result = "< 50 nM"

